# ASSAY_OVERVIEW: qHTS for Activators of p53 Stress Response Pathway screened against the NCATS CANVASS Library (AID 1347388)
# ASSAY_CONTEXT: p53RE-bla HCT-116, beta-lactamase reporter, 16 h; series mostly up to 46.1 µM
# Source text: Natural products and their derivatives continue to be wellsprings of nascent therapeutic potential. […] To address this issue, the Canvass library of natural products was assembled (https://tripod.nih.gov/canvass), in collaboration with academic and industry researchers, for quantitative high-throughput screening (qHTS) across a diverse set of cell-based and biochemical assays. […] The activation of the report gene under culture conditions can be detected by fluorescence intensity. […]
Inconclusive results are not listed. The source made the active and inactive calls. Calls follow the shape of the dose curve; as a rule, active = well fitted activation curve with a large enough effect; inconclusive = small, poorly fitted or top-dose-only effect; inactive = flat fitted curve, though single readings scatter.
QUANTITY_MEASURED: outcome

Record excerpt, results attached:
1. CNCCc1c[nH]c2ccccc12 = inactive
2. CCN1C[C@]2(C)CC[C@@H](O)[C@]34C1[C@H](C[C@H]23)C12CCC(CC14)[C@](O)(CO)[C@H]2O (stereo partly drawn) = inactive
3. CCC[C@H]1CC[C@H]2[C@H](C)CCC[C@H]2N1 = inactive
4. CCCCC[C@@H]1OC(=O)[C@@H](C)N(C)C(=O)[C@H](CCCCC)OC(=O)C(C)N(C)C(=O)[C@H](CCCCC)OC(=O)[C@@H](C)N(C)C(=O)[C@H](CCCCC)OC(=O)C(C)N(C)C1=O (stereo partly drawn) = inactive
5. c1ccc2c3c([nH]c2c1)CNCC3 = inactive
6. CCN1C[C@]2(C)CC[C@H](O)[C@]34C1C(C[C@H]23)[C@@]12CC[C@H](CC14)[C@](O)(COC(=O)c1ccc(OC)c(OC)c1)[C@H]2O (stereo partly drawn) = inactive
7. CO[C@@H](/C=C/CC/C=C/C(=O)O)[C@@H](O)[C@H](C)/C=C(\C)[C@@H](O)[C@H](C)C(=O)CCCC1CC(=O)NC(=O)C1 = inactive

CC[N@@+]1([O-])C[C@]2(C)CC[C@@H](O)[C@@]34C5C[C@H]6CC[C@@]5(C(C[C@H]23)C41)[C@H](O)[C@@]6(O)CO (stereo partly drawn) yielded outcome of inactive

Where these numbers come from: PubChem BioAssay (NCATS)
